Please respond with reported melting point for every item in the list.
Kindly answer with a numeric value in °C, unit omitted.

Recorded result, CS(=O)(=O)c1ccccc1S(=O)(=O)Nc1ccc2[nH]nc(C#N)c2c1 (hydrate or solvate) , melting point: 272

Recorded result, CS(=O)(=O)c1ccccc1S(=O)(=O)Nc1ccc2[nH]nc(CCc3ccccc3)c2c1 , melting point: 192

Recorded result, O=C(Nc1n[nH]c2ccc(NS(=O)(=O)c3cc(F)cc(F)c3)cc12)c1ccccc1 (hydrate or solvate) , melting point: 246

Recorded result, CC(=O)Nc1ccccc1-c1n[nH]c2ccc(NS(=O)(=O)c3cccc(F)c3)cc12 (hydrate or solvate) , melting point: 135
